The measurements presented in this section are drawn from PubChem BioAssay AID1918930.

Listed molecules paired with reported viability, T/C
System: 233499-124-R-J3-PDC complex spheroid viability, % test/control
experimentalDetails: Anticancer human tumor 233499-124-R-J3-PDC patient-derived colon adenocarcinoma cell line growth inhibition
conditionDescription: second compound 0.316 µM; first compound 0.000316 µM; active compounds read low
# value in %; strip the unit string

{"columns": ["molecule", "unitString", "reportedMeasurement"],
 "data": [
  ["CC(C)CC(NC(=O)CNC(=O)c1cc(Cl)ccc1Cl)B1OC(=O)CC(CC(=O)O)(C(=O)O)O1 (centres undefined) + NC1CCC(NC2CC2c2ccccc2)CC1", "%", 109]
]}

Request: Name the recorded viability, T/C of the molecule listed here: CC[C@@]1(O)C(=O)OCc2c1cc1n(c2=O)Cc2cc3c(CN(C)C)c(O)ccc3nc2-1 + NC1CCC(NC2CC2c2ccccc2)CC1
Response: 93.7

Request: Name the recorded viability, T/C of the molecule listed here: Cn1ncnc1C1c2n[nH]c(=O)c3cc(F)cc(c23)NC1c1ccc(F)cc1 (centres undefined) + NC1CCC(NC2CC2c2ccccc2)CC1
Response: 113

Request: Name the recorded viability, T/C of the molecule listed here: CC(C)CC(NC(=O)CNC(=O)c1cc(Cl)ccc1Cl)B1OC(=O)CC(CC(=O)O)(C(=O)O)O1 (centres undefined) + NC1CC1c1ccc(-c2cccc(O)c2)cc1
Response: 113

====

Test system: 233499-124-R-J3-PDC complex spheroid viability, % test/control
experimentalDetails: Anticancer human tumor 233499-124-R-J3-PDC cell line growth inhibition; active = viability on the fitted dose curve at most 10% of control; inactive = the rest;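 also: spheroids exposed to agents for one week before readout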
conditionDescription: second compound 1 µM; first compound 0.949 µM
Outcomes you can answer with include only these: Yes for active, No for inactive

For orientation, consider the following solved cases.
{"columns": ["molecule", "classLabel"],
 "data": [
  ["NS(=O)(=O)OCC1CC(n2ccc3c(NC4CCc5ccccc54)ncnc32)CC1O (stereo not given) + NC1CC1c1ccc(-c2cccc(O)c2)cc1", "Yes"],
  ["COc1cc(C2c3cc4c(cc3C(OC3OC5COC(C)OC5C(O)C3O)C3COC(=O)C23)OCO4)cc(OC)c1O (stereo not given) + NC1CC1c1ccc(-c2cccc(O)c2)cc1", "No"],
  ["NS(=O)(=O)OCC1CC(n2ccc3c(NC4CCc5ccccc54)ncnc32)CC1O (stereo not given) + NC1CCC(NC2CC2c2ccccc2)CC1", "No"]
]}

Request: Entry CCN(c1cc(-c2ccc(CN3CCOCC3)cc2)cc(C(=O)NCc2c(C)cc(C)[nH]c2=O)c1C)C1CCOCC1 + NC1CCC(NC2CC2c2ccccc2)CC1 : call = ?
Response: No

Request: Entry O=C(C=Cc1cccc(S(=O)(=O)Nc2ccccc2)c1)NO + NC1CC1c1ccc(-c2cccc(O)c2)cc1 : call = ?
Response: No

====

Tested on: 233499-124-R-J3-PDC complex spheroid viability, % test/control
experimentalDetails: Anticancer human tumor 233499-124-R-J3-PDC cell line growth inhibition;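 also: spheroids exposed to agents for one week before readout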
conditionDescription: second compound 0.316 µM; first compound 0.0949 µM; active compounds read low
Classify: True when viability, T/C is strictly less than 90%; False when viability, T/C is not.

For orientation, consider the following solved cases.
{"columns": ["compound", "classLabel"],
 "data": [
  ["Nc1ncn(C2CC(O)C(CO)S2)c(=O)n1 (configuration not stated) + NC1CCC(NC2CC2c2ccccc2)CC1", "True"],
  ["O=C(C=Cc1cccc(S(=O)(=O)Nc2ccccc2)c1)NO + NC1CC1c1ccc(-c2cccc(O)c2)cc1", "False"],
  ["NS(=O)(=O)OCC1CC(n2ccc3c(NC4CCc5ccccc54)ncnc32)CC1O (configuration not stated) + NC1CCC(NC2CC2c2ccccc2)CC1", "True"],
  ["COc1cc(C2c3cc4c(cc3C(OC3OC5COC(C)OC5C(O)C3O)C3COC(=O)C23)OCO4)cc(OC)c1O (configuration not stated) + NC1CC1c1ccc(-c2cccc(O)c2)cc1", "False"],
  ["CCN(c1cc(-c2ccc(CN3CCOCC3)cc2)cc(C(=O)NCc2c(C)cc(C)[nH]c2=O)c1C)C1CCOCC1 + NC1CC1c1ccc(-c2cccc(O)c2)cc1", "False"]
]}

Request: Is viability, T/C strictly under 90% for the entry CCN(c1cc(-c2ccc(CN3CCOCC3)cc2)cc(C(=O)NCc2c(C)cc(C)[nH]c2=O)c1C)C1CCOCC1 + NC1CCC(NC2CC2c2ccccc2)CC1 ?
Response: False

Request: Is viability, T/C strictly under 90% for the entry Nc1ccccc1NC(=O)c1ccc(CNC(=O)OCc2cccnc2)cc1 + NC1CCC(NC2CC2c2ccccc2)CC1 ?
Response: False

====

System: 233499-124-R-J3-PDC complex spheroid viability, % test/control
experimentalDetails: Anticancer human tumor 233499-124-R-J3-PDC cell line growth inhibition;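 also: spheroids exposed to agents for one week before readout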
conditionDescription: second compound 10 µM; first compound 0.0316 µM; active compounds read low
Classify: criterion met when viability, T/C is strictly less than 60%; criterion not met when viability, T/C is not.

Request: Is viability, T/C strictly under 60% for the entry O=C(C=Cn1cnc(-c2cc(C(F)(F)F)cc(C(F)(F)F)c2)n1)NNc1cnccn1 + NC1CCC(NC2CC2c2ccccc2)CC1 ?
Response: criterion not met

Request: Is viability, T/C strictly under 60% for the entry CC(C)CC(NC(=O)C(Cc1ccccc1)NC(=O)c1cnccn1)B(O)O (stereo not drawn) + NC1CC1c1ccc(-c2cccc(O)c2)cc1 ?
Response: criterion met

Request: Is viability, T/C strictly under 60% for the entry CC1COCCN1c1cc(C2(S(C)(=N)=O)CC2)nc(-c2ccnc3[nH]ccc23)n1 (stereo not drawn) + NC1CCC(NC2CC2c2ccccc2)CC1 ?
Response: criterion not met

Request: Is viability, T/C strictly under 60% for the entry CC1(C)CCC(CN2CCN(c3ccc(C(=O)NS(=O)(=O)c4ccc(NCC5CCOCC5)c([N+](=O)[O-])c4)c(Oc4cnc5[nH]ccc5c4)c3)CC2)=C(c2ccc(Cl)cc2)C1 + NC1CCC(NC2CC2c2ccccc2)CC1 ?
Response: criterion not met

====

Listed molecules paired with reported viability, T/C
Test system: 233499-124-R-J3-PDC complex spheroid viability, % test/control
experimentalDetails: Anticancer human tumor 233499-124-R-J3-PDC cell line growth inhibition;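 also: spheroids exposed to agents for one week before readout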
conditionDescription: second compound 10 µM; first compound 0.0316 µM; active compounds read low

Solved entries:
{"columns": ["molecule", "viability, T/C"],
 "data": [
  ["CC[C@@]1(O)C(=O)OCc2c1cc1n(c2=O)Cc2cc3c(CN(C)C)c(O)ccc3nc2-1 + NC1CCC(NC2CC2c2ccccc2)CC1", "60.8%"],
  ["CC1COCCN1c1cc(-c2ccnn2C)c2ccnc(-c3ccn[nH]3)c2n1 (centres undefined) + NC1CCC(NC2CC2c2ccccc2)CC1", "35%"],
  ["COc1cc(Nc2ncc3c(n2)-c2ccc(Cl)cc2C(c2c(F)cccc2OC)=NC3)ccc1C(=O)O + NC1CC1c1ccc(-c2cccc(O)c2)cc1", "56.2%"]
]}

Now, please, on to the next molecule.
Request: Name the recorded viability, T/C of the molecule listed here: O=C(C=Cn1cnc(-c2cc(C(F)(F)F)cc(C(F)(F)F)c2)n1)NNc1cnccn1 + NC1CC1c1ccc(-c2cccc(O)c2)cc1
Response: 78.2%
